Here the recorded inhibition at 1 µM is given for each entry.
target: human recombinant serotonin (5-Hydroxytryptamine) 5-HT6 receptor (Homo sapiens); construct: expressed in transfected cells; host or cells: human HeLa cells; test: Serotonin 5-HT6 radioligand binding ([3H]LSD); conditions: compound at 1 μM; HeLa cells; read-out: Serotonin (1 μM) 5-HT6, percent inhibition of specific binding
Sequence (P50406 whole entry): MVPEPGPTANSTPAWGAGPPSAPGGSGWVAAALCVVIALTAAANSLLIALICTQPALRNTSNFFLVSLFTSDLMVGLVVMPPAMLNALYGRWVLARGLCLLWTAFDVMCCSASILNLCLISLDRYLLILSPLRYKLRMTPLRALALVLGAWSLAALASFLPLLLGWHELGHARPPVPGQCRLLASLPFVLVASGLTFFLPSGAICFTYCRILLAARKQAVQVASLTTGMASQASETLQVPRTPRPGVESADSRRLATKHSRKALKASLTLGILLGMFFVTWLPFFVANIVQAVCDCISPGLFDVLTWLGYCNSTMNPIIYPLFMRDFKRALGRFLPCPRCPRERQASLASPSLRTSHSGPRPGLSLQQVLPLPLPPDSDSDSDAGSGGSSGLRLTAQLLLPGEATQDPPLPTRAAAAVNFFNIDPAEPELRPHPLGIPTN

{"compound": "Cc1ccc2c(c1)c1c(n2CCNC(=O)c2ccncc2)CCN(C)C1 [Compound 50]", "study-system": "human recombinant serotonin (5-Hydroxytryptamine) 5-HT6 receptor (Homo sapiens)", "inhibition at 1 µM (%)": -1}
{"compound": "CN1CCc2c(c3cc(Cl)ccc3n2CCCO)C1 [CD87]", "study-system": "human recombinant serotonin (5-Hydroxytryptamine) 5-HT6 receptor (Homo sapiens)", "inhibition at 1 µM (%)": 35}
{"compound": "Cc1ccc2c(c1)c1c(n2CCNC(=O)C2CCCNC2)CCN(C)C1 (stereo not drawn) [Compound 9]", "study-system": "human recombinant serotonin (5-Hydroxytryptamine) 5-HT6 receptor (Homo sapiens)", "inhibition at 1 µM (%)": -5}
{"compound": "CN1CCc2c(c3cc(Cl)ccc3n2CCC(N)=O)C1 [Compound 67]", "study-system": "human recombinant serotonin (5-Hydroxytryptamine) 5-HT6 receptor (Homo sapiens)", "inhibition at 1 µM (%)": 24}
{"compound": "CCNC(=O)Cn1c2c(c3cc(C)ccc31)CN(C)CC2 [Compound 22]", "study-system": "human recombinant serotonin (5-Hydroxytryptamine) 5-HT6 receptor (Homo sapiens)", "inhibition at 1 µM (%)": 27}
{"compound": "CCNC(=O)CCn1c2c(c3cc(C)ccc31)CN(C)CC2 [Compound 2]", "study-system": "human recombinant serotonin (5-Hydroxytryptamine) 5-HT6 receptor (Homo sapiens)", "inhibition at 1 µM (%)": 19}
{"compound": "Cc1ccc2c(c1)c1c(n2CCNC(=O)c2ccncc2C)CCN(C)C1 [Compound 69]", "study-system": "human recombinant serotonin (5-Hydroxytryptamine) 5-HT6 receptor (Homo sapiens)", "inhibition at 1 µM (%)": -4}
{"compound": "Cc1ccc2c(c1)c1c(n2CC#N)CCN(C)C1 [CD61]", "study-system": "human recombinant serotonin (5-Hydroxytryptamine) 5-HT6 receptor (Homo sapiens)", "inhibition at 1 µM (%)": 68}
{"compound": "CN1CCc2c(c3cc(Cl)ccc3n2CCC(=O)OC2CCCC2)C1 [Compound 21]", "study-system": "human recombinant serotonin (5-Hydroxytryptamine) 5-HT6 receptor (Homo sapiens)", "inhibition at 1 µM (%)": 100}
{"compound": "Cc1ccc2c(c1)c1c(n2CCNC(=O)c2ccc(F)cc2)CCN(C)C1 [Compound 66]", "study-system": "human recombinant serotonin (5-Hydroxytryptamine) 5-HT6 receptor (Homo sapiens)", "inhibition at 1 µM (%)": 35}
{"compound": "Cc1ccc2c(c1)c1c(n2CC(=O)O)CCN(C)C1 [CD58]", "study-system": "human recombinant serotonin (5-Hydroxytryptamine) 5-HT6 receptor (Homo sapiens)", "inhibition at 1 µM (%)": -5}
{"compound": "Cc1ccc2c(c1)c1c(n2CCNC(=O)C2CCCCC2)CCN(C)C1 [Compound 62]", "study-system": "human recombinant serotonin (5-Hydroxytryptamine) 5-HT6 receptor (Homo sapiens)", "inhibition at 1 µM (%)": 19}
{"compound": "CN1CCc2c(c3cc(Cl)ccc3n2CCC(=O)O)C1 [CD55]", "study-system": "human recombinant serotonin (5-Hydroxytryptamine) 5-HT6 receptor (Homo sapiens)", "inhibition at 1 µM (%)": -3}
{"compound": "CN1CCc2c(c3cc(Cl)ccc3n2CCO)C1 [CD89]", "study-system": "human recombinant serotonin (5-Hydroxytryptamine) 5-HT6 receptor (Homo sapiens)", "inhibition at 1 µM (%)": 36}
{"compound": "Cc1ccc2c(c1)c1c(n2CCC(=O)O)CCN(C)C1 [CD47]", "study-system": "human recombinant serotonin (5-Hydroxytryptamine) 5-HT6 receptor (Homo sapiens)", "inhibition at 1 µM (%)": 11}
